Biological target: T1, human LAP-TGFB1 Fc fusion (human)
T1 construct: also called human LAP-TGFβ1-Fc; human LAP-TGFβ-Fc isoform 1
T1 sequence (chain, as listed by the source limits assumed): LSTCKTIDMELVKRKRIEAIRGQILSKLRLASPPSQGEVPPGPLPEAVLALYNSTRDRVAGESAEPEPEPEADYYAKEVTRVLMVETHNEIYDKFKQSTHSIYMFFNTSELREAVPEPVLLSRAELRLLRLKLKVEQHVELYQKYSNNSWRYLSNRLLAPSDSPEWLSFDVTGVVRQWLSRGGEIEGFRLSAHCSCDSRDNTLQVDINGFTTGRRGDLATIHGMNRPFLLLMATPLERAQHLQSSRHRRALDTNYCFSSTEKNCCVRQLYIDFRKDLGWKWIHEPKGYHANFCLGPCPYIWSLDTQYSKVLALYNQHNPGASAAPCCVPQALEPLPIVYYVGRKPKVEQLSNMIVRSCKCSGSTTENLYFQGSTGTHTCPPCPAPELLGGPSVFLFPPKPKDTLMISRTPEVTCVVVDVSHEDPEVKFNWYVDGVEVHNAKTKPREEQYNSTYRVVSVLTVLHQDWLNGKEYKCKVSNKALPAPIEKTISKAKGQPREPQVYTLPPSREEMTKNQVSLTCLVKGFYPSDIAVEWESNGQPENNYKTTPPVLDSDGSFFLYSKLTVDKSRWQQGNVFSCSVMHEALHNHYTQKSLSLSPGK
Assay: SPR pH 7.4, antigen-Fc captured, Fab analyte
observable: koff (s⁻¹)
Value expressed in s⁻¹; do not type the unit.

- binder: "60BLH (Fab, V domains shown, also called 12BLM Fab) VH: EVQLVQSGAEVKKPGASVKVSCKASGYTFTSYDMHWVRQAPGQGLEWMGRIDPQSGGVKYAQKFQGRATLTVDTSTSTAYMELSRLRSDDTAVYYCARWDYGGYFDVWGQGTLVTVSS VL: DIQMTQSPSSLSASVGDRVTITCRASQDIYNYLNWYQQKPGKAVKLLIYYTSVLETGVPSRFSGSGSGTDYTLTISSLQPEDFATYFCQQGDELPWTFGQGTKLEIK"
  koff [s⁻¹]: 0.000186
- binder: "61BLH (Fab, V domains shown, also called 13BLM Fab) VH: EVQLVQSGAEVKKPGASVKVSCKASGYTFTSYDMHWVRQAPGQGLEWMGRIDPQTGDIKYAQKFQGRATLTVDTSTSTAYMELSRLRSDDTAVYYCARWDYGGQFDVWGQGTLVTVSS VL: DIQMTQSPSSLSASVGDRVTITCRASQDIYNYLNWYQQKPGKAVKLLIYYTSGLETGVPSRFSGSGSGTDYTLTISSLQPEDFATYFCQQGDTLPWTFGQGTKLEIK"
  koff [s⁻¹]: "4.52e-05"
- binder: "63BLH (Fab, V domains shown, also called 15BLM Fab; 015BLM Fab) VH: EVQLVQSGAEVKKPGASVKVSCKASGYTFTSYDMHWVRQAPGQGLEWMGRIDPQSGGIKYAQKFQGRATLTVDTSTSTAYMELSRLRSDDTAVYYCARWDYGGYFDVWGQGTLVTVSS VL: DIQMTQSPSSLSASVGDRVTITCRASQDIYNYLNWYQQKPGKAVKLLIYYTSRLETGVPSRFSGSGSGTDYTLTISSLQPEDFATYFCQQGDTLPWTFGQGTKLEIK"
  koff [s⁻¹]: 0.00198

Now turn to the next binder.
Query string: // query koff value for entry 58BLH (Fab, V domains shown, also called 10BLM Fab) VH: EVQLVQSGAEVKKPGASVKVSCKASGYTFTSYDMHWVRQAPGQGLEWMGRIDPQSGGTKYAQKFQGRATLTVDTSTSTAYMELSRLRSDDTAVYYCARWDYGGYFDVWGQGTLVTVSS VL: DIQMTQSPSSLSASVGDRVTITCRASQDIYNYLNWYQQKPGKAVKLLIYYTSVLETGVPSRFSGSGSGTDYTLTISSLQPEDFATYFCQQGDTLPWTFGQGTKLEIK
Result string: 0.000313
